- System Tested: T1, ProQ (minimal ProQ, FinO domain with short N- and C-terminal extensions) (Neisseria meningitidis, UniProt Q9JY98 1-141)
- T1 sequence: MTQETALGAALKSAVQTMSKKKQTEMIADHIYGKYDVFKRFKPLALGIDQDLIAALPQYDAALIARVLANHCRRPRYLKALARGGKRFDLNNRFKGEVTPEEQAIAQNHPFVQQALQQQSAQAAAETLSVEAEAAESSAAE
- Experimental Protocol: EMSA; max bound 91%; 25 mM Tris pH 7.5, 150 mM NaCl, 5% glycerol, 1 mM MgCl2, 1 nM 32P-RNA, ProQ up to 50 nM, 30 min at room temperature; 6% native gel at 4 C
- Test Context: protein: recombinant; tags: N-terminal His6-TEV, cleaved; one extra N-terminal Ser remains; label: 5'-32P; hairpin, GAAA loop
pKd: −log10 of the molar value.

# Binder, pKd
records = [
    ("GGGAUUUCAGUUUGAAAGCAAAGCCUCCGAAAGGAGGCUUUUUU (structured_RNA) [rpmG-loop-44]", 8.40),
]
